# systemTested: T1, Escherichia coli quinol:fumarate reductase flavoprotein subunit FrdA (isolated subunit) (E. coli, UniProt P00363 1-602, covalent FAD on H44 (8α-N(3)-histidyl linkage))
# T1 construct: FrdA, flavoprotein subunit of E. coli quinol:fumarate reductase (FrdABCD), isolated subunit without FrdBCD; The methods describe only FrdA in lysate; also called FrdA subunit; Complex II flavoprotein subunit; source: 'purified, isolated FrdA' for spectroscopy and kinetics (purification not described)
# T1 sequence (looked up): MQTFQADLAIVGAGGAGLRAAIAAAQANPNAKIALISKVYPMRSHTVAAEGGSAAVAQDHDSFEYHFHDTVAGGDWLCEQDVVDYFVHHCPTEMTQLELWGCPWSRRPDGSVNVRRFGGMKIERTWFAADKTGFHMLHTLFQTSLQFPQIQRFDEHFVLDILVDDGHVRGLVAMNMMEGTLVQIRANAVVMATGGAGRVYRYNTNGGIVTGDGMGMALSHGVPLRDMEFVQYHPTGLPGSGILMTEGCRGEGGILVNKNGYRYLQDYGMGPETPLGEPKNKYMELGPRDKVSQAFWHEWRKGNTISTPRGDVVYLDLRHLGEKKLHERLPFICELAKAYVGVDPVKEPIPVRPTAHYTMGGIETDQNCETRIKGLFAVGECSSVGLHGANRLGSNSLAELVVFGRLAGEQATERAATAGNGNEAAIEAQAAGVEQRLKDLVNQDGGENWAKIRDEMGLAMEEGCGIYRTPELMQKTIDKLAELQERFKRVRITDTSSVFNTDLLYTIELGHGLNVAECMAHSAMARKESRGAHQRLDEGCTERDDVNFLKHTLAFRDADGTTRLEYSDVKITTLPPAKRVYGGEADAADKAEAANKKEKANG
# assayNotes: optical difference spectroscopy (FAD absorbance titration); isolated flavoprotein (7 to 9 µM) in the cuvette titrated with SdhE; 50 mM Bis-Tris-Propane pH 8.0, 25 °C; 387–458 nm; fit of absorbance change against total ligand concentration
# protocolConditions: both partners purified
pKd: −log10 of the molar value.
metric: pKd

Escherichia coli SdhE assembly factor (natural protein, E. coli, SdhE, FAD assembly factor of E. coli Complex II, as used in optical titrations and kinetics; construct not described) MDINNKARIHWACRRGMRELDISIMPFFEHEYDSLSDDEKRIFIRLLECDDPDLFNWLMNHGKPADAELEMMVRLIQTRNRERGPVAI
6.15
